Values were extracted from the supplement of paper PMC8967900.

# System: COG-LL-317
# procedure summary: selective drug sensitivity score (sDSS, relative to normal bone marrow) (sDSS (score)); higher = more potent and effective on the cell line relative to normal bone marrow cells;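 also: ALL cell lines in 384-well plates, five doses spanning 10,000-fold, each plate scaled between vehicle and 100 µmol/L benzalkonium chloride controls, sDSS an adapted area-under-curve metric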
# condition info: 72 h
Let's look at some molecules and their measured selective drug sensitivity score.
The answer should be a number; do not append a unit.

Report selective drug sensitivity score for CCN(c1cc(-c2ccc(CN3CCOCC3)cc2)cc(C(=O)NCc2c(C)cc(C)[nH]c2=O)c1C)C1CCOCC1 [Tazemetostat] (top concentration 10000 nM) tested on COG-LL-317.
-0.08

Report selective drug sensitivity score for c1cn2cc(-c3ccc4cn[nH]c4c3)nc(Nc3ccc(N4CCOCC4)cc3)c2n1 [Entospletinib] (top concentration 5000 nM) tested on COG-LL-317.
-0.64

Report selective drug sensitivity score for O=C(/C=C\n1cnc(-c2cc(C(F)(F)F)cc(C(F)(F)F)c2)n1)NNc1cnccn1 [Selinexor] (top concentration 10000 nM) tested on COG-LL-317.
17.4

Report selective drug sensitivity score for CN(c1ncccc1CNc1nc(Nc2ccc3c(c2)CC(=O)N3)ncc1C(F)(F)F)S(C)(=O)=O (top concentration 10000 nM) tested on COG-LL-317.
-1.28

Report selective drug sensitivity score for CC1(C)CCC(CN2CCN(c3ccc(C(=O)NS(=O)(=O)c4ccc(NCC5CCOCC5)c([N+](=O)[O-])c4)c(Oc4cnc5[nH]ccc5c4)c3)CC2)=C(c2ccc(Cl)cc2)C1 [Venetoclax] (top concentration 1000 nM) tested on COG-LL-317.
2.2

###

# Tested on: P12-ICHIKAWA
# procedure summary: selective drug sensitivity score (sDSS, relative to normal bone marrow) (sDSS (score)); higher = more potent and effective on the cell line relative to normal bone marrow cells
# condition info: 72 h
reported metric: selective drug sensitivity score
The answer should be a number; do not append a unit.

compound="O=c1ncn2nc(Sc3ccc(F)cc3F)ccc2c1-c1c(Cl)cccc1Cl [Neflamapimod] (top concentration 10000 nM)" test_result=1
compound="CO[C@@H]1[C@H](N(C)C(=O)c2ccccc2)C[C@H]2O[C@]1(C)n1c3ccccc3c3c4c(c5c6ccccc6n2c5c31)C(=O)NC4 [Midostaurin] (top concentration 10000 nM)" test_result=9.76
compound="Cc1ccc(NS(=O)(=O)c2cccc(C#N)c2)c2[nH]cc(C#N)c12 [E7820] (top concentration 50000 nM)" test_result=15.4

Bench note: what selective drug sensitivity score did N.N.[Cl][Pt][Cl] [Cisplatin] (top concentration 100000 nM) show?
12.7

Bench note: what selective drug sensitivity score did CC(C)(C)c1nc(-c2cccc(NS(=O)(=O)c3c(F)cccc3F)c2F)c(-c2ccnc(N)n2)s1 [Dabrafenib] (top concentration 2500 nM) show?
1.18

###

Let's look at some compounds and their measured selective drug sensitivity score.
# System: COG-LL-319h
# procedure summary: selective drug sensitivity score (sDSS, relative to normal bone marrow) (sDSS (score)); higher = more potent and effective on the cell line relative to normal bone marrow cells
# condition info: 72 h
The answer should be a number; do not append a unit.

Past entries and their recorded results:
compound="Cc1c2oc3c(C)ccc(C(=O)N[C@@H]4C(=O)N[C@H](C(C)C)C(=O)N5CCC[C@H]5C(=O)N(C)CC(=O)N(C)[C@@H](C(C)C)C(=O)O[C@@H]4C)c3nc-2c(C(=O)N[C@@H]2C(=O)N[C@H](C(C)C)C(=O)N3CCC[C@H]3C(=O)N(C)CC(=O)N(C)[C@@H](C(C)C)C(=O)O[C@@H]2C)c(N)c1=O [Dactinomycin] (top concentration 1000 nM)" reported_metric="selective drug sensitivity score" test_result=5.94
compound="CCN(c1cc(-c2ccc(CN3CCOCC3)cc2)cc(C(=O)NCc2c(C)cc(C)[nH]c2=O)c1C)C1CCOCC1 [Tazemetostat] (top concentration 10000 nM)" reported_metric="selective drug sensitivity score" test_result=-0.08
compound="O=C(O)CC[C@H]1CC[C@@](c2cc(F)ccc2F)(S(=O)(=O)c2ccc(Cl)cc2)CC1 [MK-0752] (top concentration 1000 nM)" reported_metric="selective drug sensitivity score" test_result=0
compound="CC[C@@H]1CN(C(=O)NCC(F)(F)F)C[C@@H]1c1cnc2cnc3[nH]ccc3n12 [Upadacitinib] (top concentration 10000 nM)" reported_metric="selective drug sensitivity score" test_result=-7.16

Bench note: what selective drug sensitivity score did O=C(Nc1ccc2[nH]nc(-c3ccncc3)c2c1)[C@@H]1CCN(CC(=O)N2CCN(c3ccc(-c4ncccn4)cc3)CC2)C1 (top concentration 10000 nM) show?
2.16

Bench note: what selective drug sensitivity score did Nc1ncnc2c1c(-c1cccc(OCc3ccccc3)c1)cn2[C@H]1C[C@@H](CN2CCC2)C1 [NVP-AEW541] (top concentration 10000 nM) show?
5.08

Bench note: what selective drug sensitivity score did CC(=O)O[C@H]1C(=O)[C@@]2(C)[C@H]([C@H](OC(=O)c3ccccc3)[C@]3(O)C[C@H](OC(=O)[C@H](O)[C@@H](NC(=O)c4ccccc4)c4ccccc4)C(C)=C1C3(C)C)[C@]1(OC(C)=O)CO[C@@H]1C[C@@H]2O [Paclitaxel] (top concentration 1000 nM) show?
21.5

Bench note: what selective drug sensitivity score did O=C(NCc1ccncc1)C12CC3CC(C1)CC(c1ccc(Cl)cc1)(C3)C2 (top concentration 50000 nM) show?
-0.62
